Tested on: RNA versus DNA
Assay name: Screening of fluorescence properties and relative fluorescence enhancement with RNA versus DNA (Table 3)
Format: binding
Condition: fluorescence enhancement when associated with RNA to that when associated with DNA
Binary label based on Fluorescence Enhancement Ratio (RNA/DNA) with cut-off 5: below gives 1, not below gives -1.

[[record]]
mol = "C[n+]1c(/C=C2\\C=C(N(CCC[N+](C)(C)C)CCC[N+](C)(C)C)N(CCCCCCCCCCN3C(N(CCC[N+](C)(C)C)CCC[N+](C)(C)C)=C/C(=C\\c4sc5ccccc5[n+]4C)c4ccccc43)c3ccccc32)sc2ccccc21.Cl.Cl"
study_target = "RNA versus DNA"
answer_label = 1

[[record]]
mol = "C[n+]1c(/C=C2\\C=C(SCCCCCCCCCSC3=C/C(=C\\c4sc5ccccc5[n+]4C)c4ccccc4N3c3ccccc3)N(c3ccccc3)c3ccccc32)sc2ccccc21"
study_target = "RNA versus DNA"
answer_label = 1

[[record]]
mol = "C[n+]1c(/C=C2\\C=C(Sc3nnc(SC4=C/C(=C\\c5sc6ccccc6[n+]5C)c5ccccc5N4c4ccccc4)s3)N(c3ccccc3)c3ccccc32)sc2ccccc21.[Cl-].[Cl-]"
study_target = "RNA versus DNA"
answer_label = 1

[[record]]
mol = "C[n+]1c(/C=C2\\C=C(N3CCN(C4=C/C(=C\\c5oc6ccccc6[n+]5C)c5ccccc5N4c4ccccc4)CC3)N(c3ccccc3)c3ccccc32)oc2ccccc21.[Cl-].[Cl-]"
study_target = "RNA versus DNA"
answer_label = -1


----------
Test system: RNA versus DNA
Assay name: Screening of fluorescence properties and relative fluorescence enhancement with RNA versus DNA (Table 3)
Assay type: binding
Condition: fluorescence enhancement when associated with RNA to that when associated with DNA
Rule for this label: 1 means Fluorescence Enhancement Ratio (RNA/DNA) is less than 6; -1 means Fluorescence Enhancement Ratio (RNA/DNA) is at least 6.

[[record]]
molecule = "C[n+]1c(/C=C/C=C2/C=CN(c3ccccc3)C(N3CCN(C4=C/C(=C\\C=C\\c5sc6ccccc6[n+]5C)C=CN4c4ccccc4)CC3)=C2)sc2ccccc21 [Compound 18]"
answer_label = 1

[[record]]
molecule = "COc1ccc2c(c1)N(c1ccccc1)C(N1CCN(C3=C/C(=C\\c4sc5ccccc5[n+]4C)c4ccc(OC)cc4N3c3ccccc3)CC1)=C/C2=C\\c1sc2ccccc2[n+]1C.[I-].[I-] [Compound 19]"
answer_label = 1

[[record]]
molecule = "C[n+]1c(/C=C2\\C=C(N3CCN(C4=C/C(=C\\c5sc6ccccc6[n+]5C)c5ccccc5N4c4ccccc4)CC3)N(c3ccccc3)c3ccccc32)sc2ccccc21.[Cl-].[Cl-] [Compound 6]"
answer_label = -1

[[record]]
molecule = "CN1/C(=C\\c2ccn(-c3ccccc3)/c(=N\\N3CCN(/N=c4/cc(/C=C5/Sc6ccccc6N5C)c5ccccc5n4-c4ccccc4)CC3)c2)Sc2ccccc21 [Compound 25]"
answer_label = 1

[[record]]
molecule = "CN1/C(=C\\c2c/c(=N/N3CCN(/N=c4/cc(/C=C5/Sc6ccccc6N5C)c5ccccc5n4-c4ccccc4)CC3)n(-c3ccccc3)c3ccccc23)Sc2ccccc21 [Compound 9]"
answer_label = 1

